System: Escherichia coli CCUGT
Settings: MHB, 5 × 10^5 CFU/mL, 18 h, 35 °C, triplicate
Non-standard residues stand in square brackets, D forms with d. Residues, ends and D or L forms follow the SMILES beside them. *: point of attachment. Leu(ol) = CC(C)C[C@H](N)CO; Octanoyl = CCCCCCCC(=O)*; Api = NC1(C(=O)O)CCNCC1; Aib = CC(C)(N)C(=O)O
The compounds listed here are annotated with their MIC Eco.

{"compound": "CCCCCCCC(=O)NC(C)(C)C(=O)NCC(=O)N[C@@H](CC(C)C)C(=O)NC(C)(C)C(=O)N[C@@H](CCCCN)C(=O)NC(C)(C)C(=O)N[C@@H](CC(C)C)C(=O)NC(C)(C)C(=O)NCC(=O)N[C@H](C(=O)N[C@@H](CC(C)C)C(N)=O)[C@@H](C)CC [Peptide 6b] (Octanoyl-[Aib]GL[Aib]K[Aib]L[Aib]GIL-NH2)", "target.or.system": "Escherichia coli CCUGT", "MIC Eco": "> 128 µg/mL"}
{"compound": "CCCCCCCC(=O)NC(C)(C)C(=O)N[C@@H](CCCCN)C(=O)N[C@@H](CCCCN)C(=O)N[C@@H](CC(C)C)C(=O)NC(C)(C)C(=O)NCC(=O)N[C@H](C(=O)N[C@@H](CC(C)C)C(N)=O)[C@@H](C)CC [Peptide 12] (Octanoyl-[Aib]KKL[Aib]GIL-NH2)", "target.or.system": "Escherichia coli CCUGT", "MIC Eco": "16 µg/mL"}

(Q) Endpoint output: MIC Eco of CCCCCCCC(=O)NC(C)(C)C(=O)NCC(=O)N[C@@H](CC(C)C)C(=O)NC(C)(C)C(=O)NCC(=O)NCC(=O)N[C@@H](CC(C)C)C(=O)NC1(C(=O)NCC(=O)N[C@H](C(=O)N[C@@H](CC(C)C)C(N)=O)[C@@H](C)CC)CCNCC1 [Peptide 8] (Octanoyl-[Aib]GL[Aib]GGL[Api]GIL-NH2) . Value?
(A) > 128 µg/mL

(Q) Next: CCCCCCCC(=O)NC(C)(C)C(=O)NCC(=O)N[C@@H](CC(C)C)C(=O)NC(C)(C)C(=O)N[C@@H](CCCCN)C(=O)NC(C)(C)C(=O)N[C@@H](CC(C)C)C(=O)NC(C)(C)C(=O)NCC(=O)N[C@H](C(=O)N[C@H](CO)CC(C)C)[C@@H](C)CC [Peptide 6] (Octanoyl-[Aib]GL[Aib]K[Aib]L[Aib]GI[Leu(ol)])
(A) > 128 µg/mL

(Q) Next: CCCCCCCC(=O)NC(C)(C)C(=O)N[C@@H](CCCCN)C(=O)N[C@@H](CC(C)C)C(=O)NC(C)(C)C(=O)N[C@@H](CCCCN)C(=O)N[C@@H](CCCCN)C(=O)N[C@@H](CC(C)C)C(=O)NC(C)(C)C(=O)N[C@@H](CCCCN)C(=O)N[C@H](C(=O)N[C@H](CO)CC(C)C)[C@@H](C)CC [Peptide 7] (Octanoyl-[Aib]KL[Aib]KKL[Aib]KI[Leu(ol)])
(A) 16 µg/mL

(Q) Next: CCCCCCCC(=O)N[C@@H](CC(C)C)C(=O)NC(C)(C)C(=O)N[C@@H](CCCCN)C(=O)N[C@@H](CC(C)C)C(N)=O [Peptide 16, 1-Oct-Leu-Aib-Lys-Leu-NH2] (Octanoyl-L[Aib]KL-NH2)
(A) > 128 µg/mL

(Q) Next: CCCCCCCC(=O)N[C@@H](CC(C)C)C(=O)N[C@@H](CCCCN)C(=O)NC(C)(C)C(=O)N[C@@H](CC(C)C)C(N)=O [Peptide 18, 1-Oct-Leu-Lys-Aib-Leu-NH2] (Octanoyl-LK[Aib]L-NH2)
(A) > 128 µg/mL
